Sourced from the Immune Epitope Database (IEDB)

subject_of_test: HLA-B*07:02
measurement_protocol: IEDB peptide-MHC binding, purified MHC/competitive/fluorescence; filed as Kd, often an IC50 or EC50 that approximates it; bounds were set here for any values at or beyond the usual limits of such assays
condition_set: source organism: Candida albicans SC5314
endpoint_label: Kd

Incoming: What Kd value was documented for this sequence, RVYNNTARY ?
Outgoing: ≥ 20 µM

###

subject_of_test: HLA-B*15:01
measurement_protocol: IEDB peptide-MHC binding, purified MHC/direct/fluorescence; filed as Kd, often an IC50 or EC50 that approximates it; bounds were set here for any values at or beyond the usual limits of such assays
condition_set: source organism: Influenza A virus (A/Viet Nam/HN/2004(H5N1))
pKd: −log10 of the molar value.
endpoint_label: pKd

Incoming: Any idea what pKd was measured for VHFRNQVKI ?
Outgoing: ≤ 4.70

###

subject_of_test: HLA-A*11:01
measurement_protocol: IEDB peptide-MHC binding, purified MHC/competitive/radioactivity; filed as Kd, often an IC50 or EC50 that approximates it; bounds were set here for any values at or beyond the usual limits of such assays
condition_set: source organism: Triticum aestivum
pKd: −log10 of the molar value.
endpoint_label: pKd

Incoming: Form field: pKd recorded for KSQVLQQSTY with HLA-A*11:01 (enter value)
Outgoing: ≤ 4.66

###

subject_of_test: HLA-A*26:03
measurement_protocol: IEDB peptide-MHC binding, purified MHC/competitive/fluorescence; filed as Kd, often an IC50 or EC50 that approximates it; bounds were set here for any values at or beyond the usual limits of such assays
condition_set: source organism: Vibrio cholerae 2740-80
endpoint_label: Kd

Incoming: Sample AADFPGIAR — what was its Kd?
Outgoing: ≥ 20 µM

###

subject_of_test: HLA-C*06:02
measurement_protocol: IEDB peptide-MHC binding, purified MHC/direct/fluorescence; filed as Kd, often an IC50 or EC50 that approximates it; bounds were set here for any values at or beyond the usual limits of such assays
condition_set: source organism: Campylobacter jejuni
endpoint_label: Kd

Incoming: Lab request: please report Kd under test system HLA-C*06:02 for YTKKYLLSF
Outgoing: ≥ 20 µM

###

Kd overview
subject_of_test: HLA-A*02:01
measurement_protocol: IEDB peptide-MHC binding, purified MHC/direct/fluorescence; filed as Kd, often an IC50 or EC50 that approximates it; bounds were set here for any values at or beyond the usual limits of such assays
condition_set: source organism: Vibrio vulnificus YJ016

GWPDNYCEW ... ≥ 20 µM

Turning to the following sequence.
Incoming: Could you share what Kd was measured for WHQARFEEL , tested on HLA-A*02:01?
Outgoing: ≥ 20 µM

###

subject_of_test: HLA-B*40:01
measurement_protocol: IEDB peptide-MHC binding, purified MHC/competitive/fluorescence; filed as Kd, often an IC50 or EC50 that approximates it; bounds were set here for any values at or beyond the usual limits of such assays
condition_set: source organism: Corynebacterium glutamicum ATCC 13032
endpoint_label: Kd

Incoming: Name the reported Kd value associated with the sequence MSSAAHLLY
Outgoing: ≥ 20 µM

###

subject_of_test: HLA-A*11:01
measurement_protocol: IEDB peptide-MHC binding, purified MHC/competitive/radioactivity; filed as Kd, often an IC50 or EC50 that approximates it; bounds were set here for any values at or beyond the usual limits of such assays
condition_set: source organism: Mammarenavirus juninense
endpoint_label: Kd (µM)
Form entry: value (µM) — number only.

Incoming: Fill in the blank: the reported Kd of TVFFTASLFL is ____.
Outgoing: 0.482
